Test: Pharmacokinetic assay for evaluation of oral absorption potential
Format: in vivo
Conditions: male Sprague Dawley rats, oral gavage 15 mg/kg in 20% hydroxy-beta-cyclo dextran, plasma, N = 2; read-out: CMax (μM) @ 2 h
quantity.name: Cmax

| compound | endpoint.result |
| --- | --- |
| O=C(NC=Cc1ccccc1)C(c1cccc2ccccc12)P1(=O)OCCCO1 (stereo not shown) [Cpd 178] | 4.1 µM |

====

Target: human skin chymase (Homo sapiens)
Construct: using human skin chymase (Cortex Biochem); purchased Cortex Biochem
Sequence (P23946 22-247): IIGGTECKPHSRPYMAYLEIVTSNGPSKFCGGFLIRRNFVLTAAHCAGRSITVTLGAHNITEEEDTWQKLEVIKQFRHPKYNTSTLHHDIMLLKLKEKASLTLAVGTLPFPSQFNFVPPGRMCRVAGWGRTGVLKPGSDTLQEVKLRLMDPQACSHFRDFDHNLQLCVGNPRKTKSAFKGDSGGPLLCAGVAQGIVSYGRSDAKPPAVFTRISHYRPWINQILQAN
Test: Enzyme-catalyzed hydrolysis assay (chymase inhibition)
Type: biochemical
Conditions: 10 nM enzyme, 0.7 mM Suc-Ala-Ala-Pro-Phe-pNa, pH 8.0, 37° C., 30 minutes
Param label: returns T when IC50 < 1 µM, returns F otherwise, including exact equality.

| compound | target.desc | class.label |
| --- | --- | --- |
| O=C(Nc1cc2ccccc2cc1CNC1CCCCC1)C(c1cccc2ccccc12)P(=O)(O)O (centres unmarked) | human skin chymase (Homo sapiens) | T |
| O=C(Nc1cnc2ccccc2c1)C(c1cccc2ccccc12)P(=O)(O)O (centres unmarked) | human skin chymase (Homo sapiens) | T |
| CP(=O)(O)C(C(=O)NC=Cc1ccccc1NC(N)=O)c1csc2ccc(Cl)cc12 (centres unmarked) | human skin chymase (Homo sapiens) | F |
| COC(=O)COc1c(NC(=O)C(c2cccc3ccccc23)P(=O)(O)O)ccc2ccccc12 (centres unmarked) | human skin chymase (Homo sapiens) | F |
| O=C(Nc1cc2ccccc2cc1CNC1CCCC1)C(c1cccc2ccccc12)P(=O)(O)O (centres unmarked) | human skin chymase (Homo sapiens) | F |
| O=C(Nc1ccc2ccccc2n1)C(c1cccc2ccccc12)P(=O)(O)O (centres unmarked) | human skin chymase (Homo sapiens) | F |
| O=C(Nc1cc2ccccc2s1)C(c1cccc2ccccc12)P(=O)(O)O (centres unmarked) | human skin chymase (Homo sapiens) | T |
| CP(=O)(O)C(C(=O)N/C=C/c1ccccc1NC(=O)NC(N)=O)c1csc2ccc(Cl)cc12 (centres unmarked) | human skin chymase (Homo sapiens) | F |
| Cn1cc(C(C(=O)Nc2ccc3ccccc3c2)P(=O)(O)O)c2cccnc21 (centres unmarked) | human skin chymase (Homo sapiens) | F |
| CP(=O)(O)C(C(=O)Nc1cc2ccccc2o1)c1csc2ccc(Cl)cc12 (centres unmarked) | human skin chymase (Homo sapiens) | T |
| O=C(Nc1cc2ccccc2cc1NC(=O)C(c1cccc2ccccc12)P(=O)(O)O)C1CCN(C(=O)c2ccc3ccccc3c2)CC1 (centres unmarked) | human skin chymase (Homo sapiens) | F |
| O=C(Nc1ccc2ccccc2c1OCC(=O)N1CCC(c2ccccc2)CC1)C(c1cccc2ccccc12)P(=O)(O)O (centres unmarked) | human skin chymase (Homo sapiens) | F |
| CN(C(=O)c1cc2ccccc2cc1NC(=O)C(c1cccc2ccccc12)P(=O)(O)O)C1CC=C(c2ccccc2)CC1 (centres unmarked) | human skin chymase (Homo sapiens) | T |
| CP(=O)(O)C(C(=O)NC=Cc1ccccc1[N+](=O)[O-])c1csc2ccc(Cl)cc12 (centres unmarked) | human skin chymase (Homo sapiens) | F |
